Give pIC50 for every item shown.
# Test system: MYB mRNA
# procedure-details: Splicing RT-qPCR assay, MYB canonical (CJ) and alternative (AJ) junction mRNA
# Type: cell-based, human
# run-conditions: Homo sapiens, 24 h, A673 or K562 cells, 24 hours compound treatment, RT-qPCR; read-out: MYB CJ (IC50, decrease in canonical junction mRNA)
pIC50: −log10 of the molar value. Counter-ions that a name gives are not always drawn.

molecule=CN[C@H]1CCN(c2ccc(C(=O)Nc3cn4cc(C)nc4c(OC)n3)c3nn(CCOC)cc23)C1 value_measured="> 7.00"
molecule="Cc1cn2cc(NC(=O)c3ccc(N4CCNCC4)c4cn(C)nc34)cc(C#N)c2n1 [Compound 314, hydrochloride]" value_measured="> 7.00"
molecule=CN[C@@H]1CCN(c2ccc(C(=O)Nc3cn4cc(C)nc4c(OC)n3)c3nn(C)cc23)C1 value_measured="> 7.00"

For each entry beneath this line, provide reported pIC50.
1. Cc1cn2cc(NC(=O)c3ccc(N4CCC(N(C)C)C4)c4cn(C)nc34)cc(Cl)c2n1 (stereo not drawn)
2. CCn1cc2c(N3CCC(NC4C5COCC54)CC3)ccc(C(=O)Nc3cc(F)c4nc(C)cn4c3)c2n1 (stereo not drawn)
3. Cc1cn2cc(NC(=O)c3ccc(N4CCNCC4)c4c(C)n(C)nc34)cc(F)c2n1
4. Cc1cn2cc(NC(=O)c3ccc(N4CCC(C)(NC(C)C)C4)c4cn(C)nc34)cc(F)c2n1 (stereo not drawn)
5. Cc1cn2cc(NC(=O)c3ccc(N4CC[C@@H](N(C)C)C4)c4cn(C)nc34)cc(F)c2n1 (single isomer, unassigned)
6. Cc1cn2cc(NC(=O)c3ccc(N4CCC(N)(CF)CC4)c4cn(C)nc34)cc(F)c2n1

Result string:
1: 6.00 to 7.00; 2: 6.00 to 7.00; 3: 5.00 to 6.00; 4: 6.00 to 7.00; 5: > 7.00; 6: 6.00 to 7.00

* * *

# System: HTT mRNA
# procedure-details: Splicing RT-qPCR assay, HTT canonical (CJ) and alternative (AJ) junction mRNA
# Assay type: cell-based, human
# run-conditions: Homo sapiens, A673 or K562 cells, 24 hours compound treatment, read-out: HTT AJ (AC50, increase in alternative junction mRNA)
property-name: AC50

Example entries and their recorded answers appear below.
molecule="Cc1cn2cc(NC(=O)c3ccc(N4CCCC4)c4cn(C)nc34)cc(F)c2n1 [Compound 487]" property_name=AC50 value_measured="1000 to 10000 nM"
molecule="Cc1cn2cc(NC(=O)c3ccc(N4CC5(CN(C)C5)C4)c4cn(C)nc34)cc(F)c2n1 [Compound 243]" property_name=AC50 value_measured="100 to 1000 nM"
molecule="Cn1cc2c(N3CCNCC3)ccc(C(=O)Nc3cc(F)c4nc(CF)oc4c3)c2n1 [Compound 514]" property_name=AC50 value_measured="100 to 1000 nM"
molecule="CCn1cc2c(N3CC[C@@H](NC)C3)ccc(C(=O)Nc3cc(Cl)c4nc(C)cn4c3)c2n1 [Compound 556]" property_name=AC50 value_measured="> 10000 nM"
molecule="Cc1cn2cc(NC(=O)c3ccc(N4CCNCC4)c4cn(C)nc34)nc(C#N)c2n1 [Compound 507]" property_name=AC50 value_measured="1000 to 10000 nM"

For each entry beneath this line, provide reported AC50.
1. Cc1nc2c(F)cc(NC(=O)c3ccc(N4CCNCC4)c4cn(C)nc34)cc2n1C [Compound 332]
2. CCn1cc2c(N3CCC(N)(CC)CC3)cc(F)c(C(=O)Nc3cc(F)c4nc(C)cn4c3)c2n1 [Compound 557]
3. Cc1cc(NC(=O)c2ccc(N3CCNCC3)c3cn(C)nc23)cc2c1nc(C)n2C [Compound 321]
4. C=CCN[C@@H]1CCN(c2ccc(C(=O)Nc3cc(F)c4nc(C)cn4c3)c3nn(C)cc23)C1 [Compound 554]
5. CCn1cc2c(C3OCC(N)CO3)ccc(C(=O)Nc3cc(F)c4nc(C)cn4c3)c2n1 (centres unmarked) [Compound 455]
6. Cc1cn2cc(NC(=O)c3ccc(N4CCC(N(C)C)C4)c4cc(C)oc34)cc(F)c2n1 (centres unmarked) [Compound 202]
7. CCCCn1cc2c(N3CCNCC3)ccc(C(=O)Nc3cc(F)c4nc(C)cn4c3)c2n1 [Compound 312]

Result string:
1: > 10000 nM; 2: 100 to 1000 nM; 3: > 10000 nM; 4: > 10000 nM; 5: > 10000 nM; 6: 1000 to 10000 nM; 7: 1000 to 10000 nM

* * *

Give IC50 for every item shown.
# System: Target C mRNA
# procedure-details: Splicing RT-qPCR gene panel, Target C canonical junction (CJ) mRNA
# Format: cell-based, human
# run-conditions: Homo sapiens, Tables 4A/4B, read-out: Target C (IC50, decrease in CJ mRNA, gene panel)

Example entries and their recorded answers appear below.
molecule=Cc1cn2cc(NC(=O)c3ncc(N4CCNCC4)c4cn(C)nc34)cc(F)c2n1 value_measured="> 10 µM"
molecule="Cc1cn2cc(NC(=O)c3ccc(N4CCNCC4)c4cn(CC(O)CO)nc34)cc(F)c2n1 (stereo not drawn)" value_measured="> 10 µM"

Query string: Provide the reported IC50 (system: Target C mRNA) for `COc1c(NC(=O)c2ccc(N3CCNCC3)c3oc(C)nc23)cn2cc(C)nc2c1F`
Result string: 0.1 to 1 µM

* * *

# System: MYB mRNA
# procedure-details: Splicing RT-qPCR assay, MYB canonical (CJ) and alternative (AJ) junction mRNA
# Assay type: cell-based, human
# run-conditions: Homo sapiens, 24 h, A673 or K562 cells, 24 hours compound treatment, RT-qPCR; read-out: MYB AJ (AC50, increase in alternative junction mRNA)
# Experimental: Compounds described herein were used to modulate RNA transcript abundance in cells. The expression of a target mRNA was measured by detecting the formation of an exon-exon junction in the canonical transcript (CJ). A compound mediated exon-inclusion event was detected by observing an increase in formation of a new junction with an alternative exon (AJ). Real-time qPCR assays were used to detect these splicing switches and interrogate the potency of various compounds towards different target genes. […]
property-name: AC50

Example entries and their recorded answers appear below.
compound=Cc1cn2cc(NC(=O)c3ccc(N4CCN[C@H](C5CC5)C4)c4cn(C)nc34)cc(F)c2n1 value_measured="100 to 1000 nM"
compound="Cc1cn2cc(NC(=O)c3ccc(N4CC[C@@H](NC5CC5(C)C)C4)c4cn(C)nc34)cc(F)c2n1 (some centres unmarked)" value_measured="100 to 1000 nM"
compound=CCn1cc2c(N3CCNCC3)ccc(C(=O)Nc3cn4cc(C)nc4c(Oc4ccccc4)n3)c2n1 value_measured="100 to 1000 nM"
compound=Cc1cn2cc(NC(=O)c3ccc(N4CC[C@@H](NC5(C#N)CC5)C4)c4cn(C)nc34)cc(F)c2n1 value_measured="1000 to 10000 nM"

For each entry beneath this line, provide reported AC50.
1. Cc1cn2cc(NC(=O)c3ccc(N4CCNCC4)c4cn(C5CC5)nc34)cc(F)c2n1
2. Cc1cn2nc(-c3ccc(C(=O)NC4CCNCC4)c4oc(C)cc34)cc(C)c2n1
3. Cc1cc2c(N3CCNCC3)ccc(C(=O)Nc3ccc4cn(C)nc4c3)c2o1
4. Cc1nnc2ccc(NC(=O)c3ccc(N4CCNCC4)c4cn(C)nc34)cn12

Result string:
1: < 100 nM; 2: > 10000 nM; 3: > 10000 nM; 4: > 10000 nM

* * *

# Tested on: MYB mRNA
# procedure-details: Splicing RT-qPCR assay, MYB canonical (CJ) and alternative (AJ) junction mRNA
# Assay type: cell-based, human
# run-conditions: Homo sapiens, 24 h, A673 or K562 cells, 24 hours compound treatment, RT-qPCR; read-out: MYB AJ (AC50, increase in alternative junction mRNA)
Counter-ions that a name gives are not always drawn.
property-name: AC50

compound=Cc1cn2cc(NC(=O)c3ccc(C4CC(C)(C)NC(C)(C)C4)c4cc(C)oc34)cc(F)c2n1 value_measured="1 to 10 µM"

For each entry beneath this line, provide reported AC50.
1. Cc1cn2cc(NC(=O)c3ccc(N4CC[C@H](NC5CC(O)C5)C4)c4cn(C)nc34)cc(F)c2n1 (stereo partly shown)
2. Cc1cn2cc(NC(=O)c3ccc(N4CCC(N5CCCC5)C4)c4cc(C)oc34)cc(F)c2n1 (stereo not shown)
3. Cc1cn2cc(NC(=O)c3ccc(N4CC[C@@H](NC5COC5)C4)c4cn(C)nc34)cc(F)c2n1
4. Cc1cn2cc(NC(=O)c3ccc(N4CCC(N5CCCC5)C4)c4cn(C)nc34)cc(F)c2n1 (stereo not shown)

Result string:
1. > 10 µM
2. 0.1 to 1 µM
3. 1 to 10 µM
4. < 0.1 µM

For each entry beneath this line, provide reported AC50.
1. CN[C@H]1CCN(c2ccc(C(=O)Nc3cn4cc(C)nc4c(OC)n3)c3nn(CCOC)cc23)C1
2. Cc1cn2cc(NC(=O)c3ccc(N4CCNCC4)c4cn(Cc5cn(C)nn5)nc34)cc(F)c2n1
3. CCn1cc2c(N3CCC4(CCN4)CC3)ccc(C(=O)Nc3cc(F)c4nc(C)cn4c3)c2n1
4. CCn1cc2c(N3CCNC4(CC4)C3)ccc(C(=O)Nc3cc(F)c4nc(C)cn4c3)c2n1
5. Cn1cc2cc(NC(=O)c3ccc(N4CCNCC4)c4cn(C)nc34)cc(F)c2n1 [Compound 319, hydrochloride]
6. Cc1cn2cc(NC(=O)c3ccc(N4CCNCC4)c4cn(CC5COC5)nc34)cc(F)c2n1
7. CCn1cc2c(N3CC[C@H](NC)C3)cc(F)c(C(=O)Nc3cc(F)c4nc(C)cn4c3)c2n1

Result string:
< 0.1 µM
0.1 to 1 µM
0.1 to 1 µM
1 to 10 µM
< 0.1 µM
< 0.1 µM
0.1 to 1 µM

For each entry beneath this line, provide reported AC50.
1. CNC1CCN(c2ccc(C(=O)Nc3cc(F)c4nc(C)cn4c3)c3nn(C)cc23)CC1
2. Cc1cn2cc(NC(=O)c3ccc(C4CCNCC4)c4ccoc34)cc(F)c2n1

Result string:
< 0.1 µM
0.1 to 1 µM
